Where do the numbers come from? From ChEMBL document CHEMBL4513216.

Kindly state cytotoxicity at 10 µM for each of the entries shown.
Test: Toxicity liver stage against HepG2, at 10uM
Format: cell-based
Design: test concentration 10 uM, cell line HepG2-A16-CD81EGFP
Details: human, HepG2-A16-CD81EGFP cells; read-out: INHIBITION
Numbers only, in %.

Some solved cases for reference:
Cc1noc(C)c1CCNc1nccc(CCC(F)(F)F)n1    -158
O=C(C1CC1)N1CC[C@H]2C(=O)N(c3ccsc3)CCO[C@H]2C1    9.85

Provide reported cytotoxicity at 10 µM for each item, in the same order as listed.
1. CCCN1CCCN(c2ncccc2C(=O)N2CCCCC2)CC1
2. COc1ccc(CCc2nnc(NC(=O)C3CC34CCC4)s2)cc1OC (stereo unspecified)
3. CCCC(O)CN1CCC(=O)N(Cc2ccccc2)Cc2ccccc21 (stereo unspecified)

1: 0.503; 2: -0.095; 3: 5.24

Provide reported cytotoxicity at 10 µM for each item, in the same order as listed.
1. COc1ccc(-n2cnc(Cl)c2CO)cc1
2. COc1cc(C(=O)NCC2CCCO2)nc2c(C)cc(F)cc12 (stereo unspecified)
3. Cc1ccc(C(=O)NC(CN2CCCC2)c2ccccc2)c(=O)[nH]1 (stereo unspecified)
4. FC(F)(F)c1ccc2nc([C@H]3CCN(C4CCC4)C3)[nH]c2c1
5. O=C(CCCc1nc(-c2ccccc2)no1)N1CCN(CCO)CC1
6. CN(C)C(=O)CO[C@H]1CO[C@@]2(CCN(Cc3ccoc3)C2)C1
7. COCC1CN(c2ccc(Cl)cc2C#N)CCO1 (stereo unspecified)

[2.49, 1.79, -2.32, 8.04, -3.54, -111, 11.1]

---

Assay: Toxicity liver stage against HepG2, at 10uM
Type: cell-based
Set-up: test concentration 10 uM, cell line HepG2-A16-CD81EGFP
Details: human, HepG2-A16-CD81EGFP cells; read-out: INHIBITION
RECORDED_METRIC: cytotoxicity at 10 µM (%)
One number for each entry, in %.

Provide reported cytotoxicity at 10 µM for each item, in the same order as listed.
1. O=C(NCCc1nncn1C1CC1)C1SCCc2sccc21 (configuration not stated)
2. CCn1ncc(NC(=O)c2cc(C3CC3)nc3c2c(C)nn3C)c1C
3. COc1ccc(CN2CCc3ncnc(C4CC4)c3CC2)cc1
4. Cc1noc(C)c1C1CCCN1CCC(=O)N1CCc2ccccc2C1 (configuration not stated)
5. Cc1ccc(NC(=O)NCC(c2cnn(C)c2)N(C)C)c(C)c1 (configuration not stated)
6. CN(CC(N)=O)C(=O)c1csc(Br)c1

-1.6
-3.32
-148
2.39
-0.538
3

Provide reported cytotoxicity at 10 µM for each item, in the same order as listed.
1. COCc1nc(CNC(=O)C(C)n2ccnc2C(C)C)no1 (configuration not stated)
2. Cn1cc(N2C(=O)CC[C@@H]3[C@H]2CCN3CCc2ccccc2)cn1
3. O=C(Cc1ccc2c(c1)CCC2)NCCNc1cnccn1
4. Cc1cc(OCC(=O)N2CCCC(c3nc(C)c(C)s3)C2)no1 (configuration not stated)
5. Cc1c(C)n(CC(O)CN2CCOCC2)c2c(Cl)cccc12 (configuration not stated)
6. c1cc2c(cc1CN1CC[C@H]3[C@H]1CCN3CC1CC1)OCO2

[-0.376, 15.6, -0.037, -16.4, 0.829, 1.67]

---

Kindly state cytotoxicity at 10 µM for each of the entries shown.
Assay: Toxicity liver stage against HepG2, at 10uM
Assay type: cell-based
Design: test concentration 10 uM, cell line HepG2-A16-CD81EGFP
Conditions: human, HepG2-A16-CD81EGFP cells; read-out: INHIBITION
// unit must come after the numeric part

Cc1nc(CO[C@@H]2CC[C@H]3[C@H]2OCCN3Cc2cccnc2)cs1    -1.43%
CCOC(=O)CSc1ccc(-c2nc(C)no2)cn1    -15.2%
CN1CCN(CC(NCc2cccc(O)c2)c2ccccc2)CC1 (stereo unspecified)    -3.89%
O=S(=O)(c1cccs1)N1CCCCC1c1ccn[nH]1 (stereo unspecified)    -3%
CCc1nsc(N2CCOC3(CCCC3)C2)n1    6.05%

So what's the measured cytotoxicity at 10 µM for this one? O=C(NCC1CC1)C1CCC2(CCNCC2)C1 (stereo unspecified) 1.91%

---

Test: Toxicity liver stage against HepG2, at 10uM
Format: cell-based
Set-up: test concentration 10 uM, cell line HepG2-A16-CD81EGFP
Conditions: human, HepG2-A16-CD81EGFP cells; read-out: INHIBITION
Kindly state cytotoxicity at 10 µM for each of the entries shown.
Numbers only, in %.

Provide reported cytotoxicity at 10 µM for each item, in the same order as listed.
1. COc1ccc(C(C)NC(=O)c2nn(C)c(C)c2Br)cc1 (centres undefined)
2. Cc1ccc(C)c(OCCC(=O)N2CCCN(CC(N)=O)CC2)c1
3. CNc1cccc(CC2COCCN(C(=O)c3cncs3)C2)n1 (centres undefined)
4. Cn1cccc1-c1cc(C(=O)N2CCCC2c2nccs2)[nH]n1 (centres undefined)
5. CCn1ccc(NC(=O)CCc2c(C)nn(C)c2C)n1

1. 9.18
2. -8.54
3. 6.42
4. 3.78
5. 4.01

---

Test: Toxicity liver stage against HepG2, at 10uM
Format: cell-based
Set-up: test concentration 10 uM, cell line HepG2-A16-CD81EGFP
Conditions: human, HepG2-A16-CD81EGFP cells; read-out: INHIBITION
Kindly state cytotoxicity at 10 µM for each of the entries shown.

Some solved cases for reference:
CC1CCCN(CC(=O)N2CCC(c3ncc4c(n3)CCNC4)CC2)C1 (configuration not stated)    7.62%
Cc1csc(C(C)(C)NCCCS(C)(=O)=O)n1    6.11%
CC(C)n1ccnc1C1CCCN(c2ccnc3ccccc23)C1 (configuration not stated)    38.4%

Provide reported cytotoxicity at 10 µM for each item, in the same order as listed.
1. Cc1nc(CC2CCN(Cc3ccc(CCC(C)(C)O)cc3)CC2)no1
2. CNC(=O)c1cccc(NC(=O)NC(C)c2cc(C)oc2C)c1C (configuration not stated)
3. O=C(NCC1CCC(c2nnc(-c3cccnc3)o2)CC1)C1CC1 (configuration not stated)
4. CCc1cnc(CN(C)C2CCN(CCc3cccs3)C2)o1 (configuration not stated)
5. Cc1cc(C(=O)NCCN2CCCC(C)C2)nn1C (configuration not stated)
6. COc1ccc(-c2cc(C[C@@H]3C[C@H](N(C)C)C3(C)C)no2)cc1
7. O=C(Nc1ccccc1)[C@H]1O[C@H](CCN2CCNCC2)CC[C@@H]1O
8. O=c1cc(N2CCNCC2)cnn1CCc1ccc(F)cc1

1: -0.94%; 2: -9.26%; 3: 3.15%; 4: -16.8%; 5: -2.79%; 6: -1.3%; 7: -7.49%; 8: -8.76%

Provide reported cytotoxicity at 10 µM for each item, in the same order as listed.
1. O=S(=O)(NCCNc1cc(-n2cccc2)ncn1)c1cccs1
2. COCC(=O)N(C)Cc1ccc(OCc2cccs2)cc1
3. COCC(=O)N1CC2(CCN(c3ccccc3)C2)C1
4. Cc1nn(C)c2ncnc(NCc3nncn3C3CCCCC3)c12
5. CN1CCc2ccc(NCc3cscn3)cc2C1=O

1. -0.582%
2. 1.73%
3. 10.1%
4. -10.2%
5. -2.43%

---

Experiment: Toxicity liver stage against HepG2, at 10uM
Assay type: cell-based
Set-up: test concentration 10 uM, cell line HepG2-A16-CD81EGFP
Details: human, HepG2-A16-CD81EGFP cells; read-out: INHIBITION
RECORDED_METRIC: cytotoxicity at 10 µM (%)
One number for each entry, in %.

Some solved cases for reference:
CC(C(=O)NCc1ccnc(N2CCCC2)c1)n1cccn1 (stereo not given)    0.309
COc1cccc(S(=O)(=O)CCNC2CCc3ncnn3C2)c1 (stereo not given)    2.53
Cc1noc(C)c1CC(=O)N1CCCC(c2noc(C(C)C)n2)C1 (stereo not given)    1.48
CCc1nc(C2CCCN2CCCS(=O)(=O)c2ccccc2)no1 (stereo not given)    -6.15

Then this molecule:
So what's the measured cytotoxicity at 10 µM for this one? CS(=O)(=O)NCC1CCN(C(=O)Oc2ccccc2)CC1 -151

---

Kindly state cytotoxicity at 10 µM for each of the entries shown.
Test: Toxicity liver stage against HepG2, at 10uM
Format: cell-based
Design: test concentration 10 uM, cell line HepG2-A16-CD81EGFP
Conditions: human, HepG2-A16-CD81EGFP cells; read-out: INHIBITION
Give bare numbers, in %.

Some solved cases for reference:
O=C(CC1CC2(CCN(CC3CC3)CC2)c2ccccc21)NC1CCC1 (stereo not drawn)    -4.63
O=C(c1ccc(Cl)cn1)N1CCC(COCc2ccccc2)C1 (stereo not drawn)    5.88
CC1CN(C)CCN1C(=O)c1ccn(-c2cccc(F)c2)n1 (stereo not drawn)    -1.87

Provide reported cytotoxicity at 10 µM for each item, in the same order as listed.
1. Cc1c(C(C)N)cnn1-c1cccc2ccccc12 (stereo not drawn)
2. CCC(C)(C)NC(=O)C[S+]([O-])Cc1csc(C2CCCC2)n1 (stereo not drawn)
3. Cc1ccc2cc(CN(C)Cc3ccncn3)c(=O)[nH]c2c1
4. Cc1cc(C)c(CNC(=O)N2CCNC(=O)C2)c(=O)[nH]1

1: 10.7; 2: -41.3; 3: 10.3; 4: -0.535

So what's the measured cytotoxicity at 10 µM for this one? Cc1cccc(OC2CN(C(=O)C3CC(=O)N(C(C)(C)C)C3)C2)c1 (stereo not drawn) 4.4
